Origin of measurements: PubChem BioAssay (NCATS)

Recorded Potency values for a group of compounds are listed next.
protocol-details: qHTS profiling for inhibitors of Plasmodium falciparum proliferation (AID 504749); further: potency means the concentration at half of the fitted maximal effect; nearly all actives have a fitted effect of over 60% in size
condition-summary: P. falciparum in erythrocytes, SYBR Green DNA, 72 h; parasite line A
Inconclusive results are not listed. Calls of active or inactive are those of the source. The call rests on the fitted dose curve; in most records, active means well fitted inhibition curve with a large enough effect; inconclusive means small, poorly fitted or top-dose-only effect; inactive means flat fitted curve, though single readings scatter.

Worked examples follow.
compound: COc1ccc(C(Cl)=C(c2ccc(OC)cc2)c2ccc(OC)cc2)cc1
recorded-result: 3.98 µM (active)
--
compound: Oc1c(Cl)cc(Cl)c(Cl)c1Cc1c(O)c(Cl)cc(Cl)c1Cl
recorded-result: 11.2 µM (active)
--
compound: CCN1/C(=C/C=C/c2sc3ccccc3[n+]2CC)Sc2ccccc21
recorded-result: 0.0891 µM (active)
--
compound: CCN(CC)CCNc1ccc(CO)c2sc3ccccc3c(=O)c12
recorded-result: 1.78 µM (active)

Turning now to a further record.
Recorded result, CCCCCCCCCCCCCC[N+](C)(C)Cc1ccccc1 , Potency: 4.47 µM (active)
